Consider the following compounds; for each one, report its MIC.
- Test system: Staphylococcus aureus
- ASSAY: Antibacterial activity against methicillin and ciprofloxacin-resistant Staphylococcus aureus 1721 for 18 to 20 hrs by broth microdilution method
- Format: functional
One number for each entry, in µg/mL.

// field: MIC; key: `CCCc1cccc2c(-c3cnc(-c4cnc(C(=O)O)c(F)c4)s3)n[nH]c12` ; value = 0.25

// field: MIC; key: `CCCc1c(O)ccc2c(-c3cnc(-c4cnc(C(=O)O)cc4C)s3)n[nH]c12` ; value = 0.125

// field: MIC; key: `CCCc1cccc2c(-c3cnc(-c4ccc(C(=O)O)c(F)c4)s3)n[nH]c12` ; value = 0.125

// field: MIC; key: `CCCOc1nccc2c(-c3cnc(-c4ccc(C(=O)O)nc4)s3)n[nH]c12` ; value = 8

// field: MIC; key: `CCCc1cccc2c(-c3cnc(-c4cnc(C(=O)OC)c(O)c4)s3)n[nH]c12` ; value = 2

// field: MIC; key: `CCOc1cccc2c(-c3cnc(-c4ccc(C(=O)O)c(F)c4)s3)n[nH]c12` ; value = 1

// field: MIC; key: `CCCc1c(OC)ccc2c(-c3cnc(-c4ccc(C(=O)O)c(F)c4)s3)n[nH]c12` ; value = 0.125

// field: MIC; key: `CCCc1cccc2c(-c3cnc(-c4ccc(COP(=O)(O)O)nc4)s3)n[nH]c12` ; value = 0.5

Batch lookup, MIC per entry.
1. CCCc1cccc2c(-c3cnc(-c4cnc(C(=O)O)c(O)c4)s3)n[nH]c12
2. CCCc1c(O)ccc2c(-c3cnc(-c4ccc(C(=O)O)c(F)c4)s3)n[nH]c12
3. CCCc1cccc2c(-c3cnc(-c4ccc(C(=O)NCCN5CCCCC5)nc4)s3)n[nH]c12
4. CCOc1nccc2c(-c3cnc(-c4cnc(C(=O)O)cc4C)s3)n[nH]c12
5. CCCc1cccc2c(-c3cnc(-c4ccc(C(=O)OC)nc4)s3)n[nH]c12
6. C=CCc1cccc2c(-c3cnc(-c4ccc(C(=O)O)nc4)s3)n[nH]c12
7. CCCOc1nccc2c(-c3cnc(-c4ccc(CO)nc4)s3)n[nH]c12

## Output
1: 0.125; 2: 0.25; 3: 2; 4: 0.5; 5: 2; 6: 0.06; 7: 0.125
